Origin of the recorded values: patent US20220144927A1

Biological target: T1, mucin subtype 5AC (human, UniProt P98088 28-5654, limits assumed)
T1 construct: Not a purified recombinant protein; also called MUC5AC; crude extract antigen solution
Assay: ELISA, plate coated with crude extract antigen solution of SW1990 xenograft tumor, HRP anti-human IgG
reported metric: in vitro binding activity ratio to antibody 1 (fold vs antibody 1)
Give the number; fold vs antibody 1 is assumed, so skip it.

-- ask # in vitro binding activity ratio to antibody 1 lookup, item antibody 6 (antibody, V domains shown, Humanized antibody of the invention; also called H02L02) VH: LVQLVESGGGVVRPGGSLRLSCAASGFTFSNYGMSWIRQAPGKGLEWVSTISNSGRYTYFPDSVKGRFTISRDNAKNSLYLQMNSLRAEDTALYYCTRHLDYANYDAMDYWGQGTLVTVSS VL: DVVMTQSPSTLSASVGDRVTITCRASKSVTTSDFSYMHWYQQKPGQAPKLLIYLASNLESGVPSRFSGSGSGTDFTLTISSLQPEDFATYYCQHSREFPWTFGQGTKLEIK
-- reply 0.71
